# key: entry, value: IC50
- Measurement target: Voltage-gated N-type calcium channel alpha-1B subunit/Amyloid beta A4 precursor protein-binding family A member 1 (Homo sapiens, UniProt Q00975+Q02410)
- Sequence (Q00975 whole entry): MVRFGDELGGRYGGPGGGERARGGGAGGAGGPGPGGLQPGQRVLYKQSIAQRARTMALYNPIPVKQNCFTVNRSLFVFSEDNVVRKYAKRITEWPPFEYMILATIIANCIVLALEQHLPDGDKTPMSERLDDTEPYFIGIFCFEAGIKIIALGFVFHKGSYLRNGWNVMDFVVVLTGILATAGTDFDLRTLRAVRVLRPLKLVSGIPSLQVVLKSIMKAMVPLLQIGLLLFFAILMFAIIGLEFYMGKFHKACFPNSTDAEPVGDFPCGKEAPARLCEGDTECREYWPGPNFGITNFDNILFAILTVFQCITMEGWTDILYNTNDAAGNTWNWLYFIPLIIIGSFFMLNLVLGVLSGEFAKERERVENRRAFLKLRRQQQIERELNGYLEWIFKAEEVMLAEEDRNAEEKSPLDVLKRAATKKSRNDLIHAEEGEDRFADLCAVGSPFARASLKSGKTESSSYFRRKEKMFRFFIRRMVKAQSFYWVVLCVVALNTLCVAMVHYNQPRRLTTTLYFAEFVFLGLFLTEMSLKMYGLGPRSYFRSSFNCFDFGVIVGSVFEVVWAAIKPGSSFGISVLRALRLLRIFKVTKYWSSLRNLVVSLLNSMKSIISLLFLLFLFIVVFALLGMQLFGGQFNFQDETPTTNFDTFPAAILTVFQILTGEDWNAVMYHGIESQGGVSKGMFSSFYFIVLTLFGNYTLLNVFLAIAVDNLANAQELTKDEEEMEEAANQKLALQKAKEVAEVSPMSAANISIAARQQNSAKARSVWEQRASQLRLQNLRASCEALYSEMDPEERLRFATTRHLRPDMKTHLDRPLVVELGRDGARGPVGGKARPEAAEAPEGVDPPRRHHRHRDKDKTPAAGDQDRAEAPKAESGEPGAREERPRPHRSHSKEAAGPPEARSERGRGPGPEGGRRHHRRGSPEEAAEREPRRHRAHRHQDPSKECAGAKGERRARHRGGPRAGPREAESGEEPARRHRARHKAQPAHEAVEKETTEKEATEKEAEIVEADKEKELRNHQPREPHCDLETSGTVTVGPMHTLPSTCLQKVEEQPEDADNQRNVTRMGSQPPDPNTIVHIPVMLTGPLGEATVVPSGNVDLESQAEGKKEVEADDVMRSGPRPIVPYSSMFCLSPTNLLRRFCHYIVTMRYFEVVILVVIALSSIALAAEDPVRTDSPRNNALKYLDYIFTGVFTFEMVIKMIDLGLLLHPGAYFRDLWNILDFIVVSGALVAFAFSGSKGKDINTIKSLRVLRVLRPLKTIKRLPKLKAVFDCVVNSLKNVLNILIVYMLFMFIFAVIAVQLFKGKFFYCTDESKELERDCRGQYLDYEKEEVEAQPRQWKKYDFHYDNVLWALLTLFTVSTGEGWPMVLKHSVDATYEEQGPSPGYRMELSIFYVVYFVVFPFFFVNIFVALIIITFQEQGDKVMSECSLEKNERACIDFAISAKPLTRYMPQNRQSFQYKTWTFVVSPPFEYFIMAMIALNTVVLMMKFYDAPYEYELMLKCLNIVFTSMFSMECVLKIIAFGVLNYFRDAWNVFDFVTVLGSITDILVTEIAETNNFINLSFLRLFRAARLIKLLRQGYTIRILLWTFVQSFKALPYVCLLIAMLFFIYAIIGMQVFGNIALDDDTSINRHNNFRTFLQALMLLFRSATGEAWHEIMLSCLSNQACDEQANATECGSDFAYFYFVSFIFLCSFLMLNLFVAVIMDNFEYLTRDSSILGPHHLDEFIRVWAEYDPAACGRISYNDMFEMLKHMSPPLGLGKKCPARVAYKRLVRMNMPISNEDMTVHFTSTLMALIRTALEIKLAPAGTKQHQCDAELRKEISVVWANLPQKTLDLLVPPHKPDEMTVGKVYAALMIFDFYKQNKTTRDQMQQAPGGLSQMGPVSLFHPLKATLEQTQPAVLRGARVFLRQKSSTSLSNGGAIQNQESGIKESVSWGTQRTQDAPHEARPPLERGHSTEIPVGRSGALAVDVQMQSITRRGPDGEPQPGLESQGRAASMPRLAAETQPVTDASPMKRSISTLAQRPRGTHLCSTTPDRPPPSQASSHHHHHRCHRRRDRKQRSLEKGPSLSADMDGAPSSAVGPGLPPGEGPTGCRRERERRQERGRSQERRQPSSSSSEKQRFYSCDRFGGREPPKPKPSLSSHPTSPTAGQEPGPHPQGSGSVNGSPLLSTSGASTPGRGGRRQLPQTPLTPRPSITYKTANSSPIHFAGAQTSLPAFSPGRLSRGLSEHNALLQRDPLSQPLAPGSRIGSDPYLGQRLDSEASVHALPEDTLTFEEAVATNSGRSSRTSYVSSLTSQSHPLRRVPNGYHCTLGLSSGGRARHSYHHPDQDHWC
- Sequence (Q02410 whole entry): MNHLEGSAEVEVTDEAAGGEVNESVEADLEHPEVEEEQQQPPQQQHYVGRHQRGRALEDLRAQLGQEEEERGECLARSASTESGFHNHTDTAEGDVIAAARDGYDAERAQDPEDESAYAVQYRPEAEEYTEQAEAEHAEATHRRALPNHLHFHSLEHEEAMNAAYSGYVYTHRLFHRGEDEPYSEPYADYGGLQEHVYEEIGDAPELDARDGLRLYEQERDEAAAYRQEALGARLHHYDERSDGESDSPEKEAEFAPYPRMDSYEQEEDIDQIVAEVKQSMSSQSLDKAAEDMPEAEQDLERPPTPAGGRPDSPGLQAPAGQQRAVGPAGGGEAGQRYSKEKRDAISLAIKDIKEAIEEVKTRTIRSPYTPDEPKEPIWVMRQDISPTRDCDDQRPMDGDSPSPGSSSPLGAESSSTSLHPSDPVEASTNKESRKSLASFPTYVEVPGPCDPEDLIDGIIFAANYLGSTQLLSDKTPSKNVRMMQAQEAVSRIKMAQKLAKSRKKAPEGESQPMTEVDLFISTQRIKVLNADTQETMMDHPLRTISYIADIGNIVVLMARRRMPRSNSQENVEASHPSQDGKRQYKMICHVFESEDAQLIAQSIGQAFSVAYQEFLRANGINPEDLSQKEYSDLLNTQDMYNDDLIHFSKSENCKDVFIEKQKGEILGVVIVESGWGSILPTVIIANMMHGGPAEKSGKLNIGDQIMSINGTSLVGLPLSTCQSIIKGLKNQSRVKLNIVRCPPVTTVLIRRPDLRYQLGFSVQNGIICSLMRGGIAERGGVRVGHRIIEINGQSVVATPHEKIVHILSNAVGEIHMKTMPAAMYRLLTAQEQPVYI
- Format: protein assay
Calls of active or inactive are those of the source.

# Molecule, IC50
records = [
    ("O=C(CCN1C(=O)/C(=C/c2ccccc2F)SC1=S)NC1C=CS(=O)(=O)C1 (stereo not drawn)", "> 50 µM (inactive)"),
    ("CCOc1ccc(NC(=O)c2ccc(NC(=O)c3ccc(CN4CCOCC4)cc3)cc2)cc1", "> 50 µM (inactive)"),
    ("Cc1ccc(-c2ccc(/C=C3\\C(=O)ON=C3c3ccccc3)o2)c([N+](=O)[O-])c1", "> 50 µM (inactive)"),
]

----------
- Measurement target: Induced myeloid leukemia cell differentiation protein Mcl-1 (Homo sapiens)
- Sequence (Q07820 whole entry): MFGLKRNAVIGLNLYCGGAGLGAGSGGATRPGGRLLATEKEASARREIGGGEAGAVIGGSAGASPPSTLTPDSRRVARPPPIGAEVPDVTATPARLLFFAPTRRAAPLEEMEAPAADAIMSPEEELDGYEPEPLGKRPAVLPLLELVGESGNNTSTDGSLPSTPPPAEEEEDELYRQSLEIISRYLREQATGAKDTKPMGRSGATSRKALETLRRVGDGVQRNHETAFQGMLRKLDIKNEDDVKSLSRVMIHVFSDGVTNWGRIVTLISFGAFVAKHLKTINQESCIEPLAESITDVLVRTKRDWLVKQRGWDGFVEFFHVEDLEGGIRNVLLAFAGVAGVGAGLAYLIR
- Format: functional
Active and inactive are the calls of the source.
Attribute measured: IC50

# Chemical smiles, Attribute measured, Observed result
measured = [
    ("O=C(O)c1cccc(Cn2c(Cl)c(/C=N/NC(=O)c3cc4ccccc4cc3O)sc2=O)c1", "IC50", "3.74 µM (active)"),
    ("COc1cc(/C=N\\Nc2nc(-c3ccc(C)cc3)c(NC(C)=O)s2)ccc1O", "IC50", "3.02 µM (not active)"),
    ("NC(=O)C1CCN(C2=C(Cl)C(=O)c3ccccc3C2=O)CC1", "IC50", "> 54 µM (not active)"),
    ("Cc1cccc(-c2nc(Nc3ccc(N4CCOCC4)cc3)c3ccccc3n2)c1", "IC50", "> 54 µM (active)"),
]

----------
# key: entry, value: AC50
- Measurement target: Cytochrome P450 1A2 (Homo sapiens, UniProt P05177);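 further: PubChem cytochrome P450 panel assay, CYP1A2 panel member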
- Sequence (P05177 whole entry): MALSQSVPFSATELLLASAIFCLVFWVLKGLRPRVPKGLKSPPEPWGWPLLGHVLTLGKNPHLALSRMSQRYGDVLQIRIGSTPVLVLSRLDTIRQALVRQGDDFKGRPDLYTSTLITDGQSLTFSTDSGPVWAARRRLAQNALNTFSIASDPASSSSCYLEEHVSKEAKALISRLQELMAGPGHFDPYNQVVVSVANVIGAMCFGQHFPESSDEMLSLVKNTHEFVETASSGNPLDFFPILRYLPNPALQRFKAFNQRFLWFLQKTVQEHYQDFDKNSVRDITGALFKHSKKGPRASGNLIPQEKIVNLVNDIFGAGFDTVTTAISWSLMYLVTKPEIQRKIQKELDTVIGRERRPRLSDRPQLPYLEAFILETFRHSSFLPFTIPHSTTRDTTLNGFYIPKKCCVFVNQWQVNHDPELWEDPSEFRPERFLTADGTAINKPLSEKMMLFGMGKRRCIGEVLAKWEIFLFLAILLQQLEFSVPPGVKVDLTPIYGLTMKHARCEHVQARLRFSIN
Attribute measured: AC50

# Molecule, Observed result
data = [
    ("CC(C)(C)OC(=O)NCCc1nnc(SCC(=O)Nc2cccc(Cl)c2)o1", "25.1 µM (inconclusive)"),
    ("COCCn1c(=O)c(-c2ccc(Cl)cc2)nc2cnc(Nc3ccccc3)nc21", "20 µM (inconclusive)"),
    ("COc1cccc(-c2csc(N3CCN(CC(=O)NNC(=O)c4ccc(Cl)cc4)CC3)n2)c1", "8.91 µM (inconclusive)"),
    ("CCCCC(=O)NNC(=S)NC(=O)c1cccc([N+](=O)[O-])c1", "22.4 µM (inconclusive)"),
    ("COc1cc2c(cc1O)[C@H]1Cc3ccc(OC)c(O)c3CN1CC2", "15.8 µM (inconclusive)"),
    ("C#CCN[C@@H](C)Cc1ccccc1", "15.8 µM (inconclusive)"),
    ("O=C(Oc1ccccc1)N1CCC[C@@]2(CCN(c3ccncc3)C2)C1", "20 µM (inconclusive)"),
    ("CCC/C=C(\\CCC)C(NS(=O)(=O)c1ccc(-c2ccccc2)cc1)c1ccc(C(=O)OC)cc1 (centres undefined)", "6.31 µM (inconclusive)"),
    ("O=C(CN(C(=O)CSc1nc2ccccc2o1)c1cccc(F)c1)NC1CCCCC1", "20 µM (inconclusive)"),
]
